src = the supplement of paper PMC9112550

# Tested on: Escherichia coli TOP10;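 also: peptides expressed intracellularly from a pBAD plasmid library in pooled LB shake-flask culture, induced with 0.3% L-arabinose, DNA abundance read by NGS, three biological replicates, DESeq2 with apeglm shrinkage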
# experimental_protocol: shrunken log2 fold change of peptide-encoding DNA abundance (4.5 h post-induction vs induction); higher = less antimicrobial activity (less host growth inhibition)
# protocol_conditions: time post-induction: 4.5 h; library: site-saturation at positions 5, 18, 19, 20
Decide using shrunken log2 fold change: a value greater than or equal to -0.04 is Condition met, a smaller one is Condition not met.

# example entries with known answers
- item_sequence: "RRIRFRPPRLPRPRPRPRHHPRP"
  category: "Condition not met"
- item_sequence: "RRIRARPPRLPRPRPRPPYDPRP"
  category: "Condition met"
- item_sequence: "RRIRRRPPRLPRPRPRPGHPPRP"
  category: "Condition met"
- item_sequence: "RRIRERPPRLPRPRPRPKQYPRP"
  category: "Condition not met"
- item_sequence: "RRIRQRPPRLPRPRPRPSWAPRP"
  category: "Condition met"
- item_sequence: "RRIRRRPPRLPRPRPRPIAWPRP"
  category: "Condition met"
- item_sequence: "RRIRSRPPRLPRPRPRPVRCPRP"
  category: "Condition met"
- item_sequence: "RRIRIRPPRLPRPRPRPARTPRP"
  category: "Condition met"

Query :: Quick check, shrunken log2 fold change >= -0.04? RRIRARPPRLPRPRPRPTMHPRP
Result :: Condition met

Query :: Also check RRIRKRPPRLPRPRPRPHWQPRP
Result :: Condition met

Query :: Also check RRIRIRPPRLPRPRPRPFIRPRP
Result :: Condition not met

Query :: Also check RRIRRRPPRLPRPRPRPGSWPRP
Result :: Condition met

Query :: Also check RRIRYRPPRLPRPRPRPNSHPRP
Result :: Condition not met

Query :: Also check RRIRLRPPRLPRPRPRPMRWPRP
Result :: Condition met
